Origin of measurements: patent US5047397A

target: specific ANP receptor sites on BASM or BAE cells (Bos taurus); construct: specific receptor sites on BASM or BAE cells; endogenous in cells; host or cells: cultured BASM and BAE cells; experiment: Competitive displacement receptor binding of (125I)-rANP(126-150) on cultured cells; parameters: species or system bovine; details: concentration of unlabeled peptide displacing 50% of maximal binding of 0.5 nM (125I)-rANP(126-150); BASM or BAE cells
Sequence (P10730 42-537): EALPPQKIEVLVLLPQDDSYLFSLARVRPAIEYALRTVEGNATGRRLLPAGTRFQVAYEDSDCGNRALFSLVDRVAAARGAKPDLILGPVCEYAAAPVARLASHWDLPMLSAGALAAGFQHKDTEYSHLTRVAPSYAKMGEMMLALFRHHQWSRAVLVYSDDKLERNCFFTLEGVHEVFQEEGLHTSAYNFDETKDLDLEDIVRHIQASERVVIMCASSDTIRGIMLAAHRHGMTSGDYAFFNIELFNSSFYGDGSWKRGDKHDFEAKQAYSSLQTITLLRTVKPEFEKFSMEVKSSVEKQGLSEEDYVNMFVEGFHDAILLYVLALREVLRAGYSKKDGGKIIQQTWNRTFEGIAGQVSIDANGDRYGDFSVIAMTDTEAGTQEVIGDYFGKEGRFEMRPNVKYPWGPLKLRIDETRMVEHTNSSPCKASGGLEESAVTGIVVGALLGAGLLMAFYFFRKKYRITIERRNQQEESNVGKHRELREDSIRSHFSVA
Where a SMILES comes first, the peptide text is derived from it. [ ]: non-standard residue; d: D form. The star is where a group is joined. Acetyl(2-naphthyloxy) = O=C(COc1ccc2ccccc2c1)*; Acetyl(2-naphthyl) = O=C(Cc1ccc2ccccc2c1)*; Aib = CC(C)(N)C(=O)O; NHiBu = CC(C)CN*
// reported Ki(app) for each item listed
Value expressed in nM; do not type the unit.

Study these solved cases before continuing.
INSERT INTO measurements (molecule, tested_system, numeric_result) VALUES
  ('CCNC(=O)[C@@H](NC(=O)[C@H](CCCNC(=N)N)NC(=O)[C@H](CC(=O)O)NC(=O)[C@@H](NC(=O)[C@H](CCCNC(=N)N)NC(=O)CNC(=O)CNC(=O)Cc1ccc2ccccc2c1)[C@@H](C)CC)[C@@H](C)CC [AP328, (2-NA)--G--G--R--I--D--R--I--NH(ethyl)] ({Acetyl(2-naphthyl)}-GGRIDRI-NHEt)', 'specific ANP receptor sites on BASM or BAE cells (Bos taurus)', 19.87),
  ('CC[C@H](C)[C@H](NC(=O)[C@H](CCCNC(=N)N)NC(=O)CNC(=O)CNC(=O)COc1ccc2ccccc2c1)C(=O)N[C@@H](CC(=O)O)C(=O)N[C@@H](CCCNC(=N)N)C(=O)NCC(C)C [AP509] ({Acetyl(2-naphthyloxy)}-GGRIDR-NHiBu)', 'specific ANP receptor sites on BASM or BAE cells (Bos taurus)', 120.0),
  ('CC[C@H](C)[C@H](NC(=O)[C@H](CCCNC(=N)N)NC(=O)[C@H](CC(=O)O)NC(=O)[C@@H](NC(=O)[C@H](CCC(N)=O)NC(=O)CNC(=O)CNC(=O)Cc1ccc2ccccc2c1)[C@@H](C)CC)C(N)=O [AP522, (2-NA)--G--G--Q--I--D--R--I--NH2] ({Acetyl(2-naphthyl)}-GGQIDRI-NH2)', 'specific ANP receptor sites on BASM or BAE cells (Bos taurus)', 23.0);

Lookup: Entry under review: CC[C@H](C)[C@H](NC(=O)[C@H](CCCNC(=N)N)NC(=O)[C@H](CC(=O)O)NC(=O)[C@@H](NC(=O)[C@H](CCCNC(=N)N)NC(=O)CNC(=O)CNC(=O)Cc1ccc2ccccc2c1)[C@@H](C)CC)C(=O)NCC(=O)NC(C)(C)C(N)=O [AP525] ({Acetyl(2-naphthyl)}-GGRIDRIG[Aib]-NH2) . Reported Ki(app)?
Found: 22.75

Lookup: Entry under review: CC[C@H](C)[C@H](NC(=O)[C@H](CCCNC(=N)N)NC(=O)CNC(=O)CNC(=O)Cc1ccc2ccccc2c1)C(=O)N[C@@H](CC(=O)O)C(=O)N[C@@H](CCCNC(=N)N)C(=O)N[C@H](CC(C)C)C(N)=O [AP536, (2-NA)--G--G--R--I--D--R--L^ --NH2)] ({Acetyl(2-naphthyl)}-GGRIDR[dL]-NH2) . Reported Ki(app)?
Found: 106.4

Lookup: Entry under review: CC[C@H](C)[C@H](NC(=O)[C@H](CCCNC(=N)N)NC(=O)[C@H](CC(=O)O)NC(=O)[C@@H](NC(=O)[C@H](CCCNC(=N)N)NC(=O)CNC(=O)CNC(=O)COc1ccc2ccccc2c1)[C@@H](C)CC)C(N)=O [AP319, (2-NOA)--G--G--R--I--D--R--I--NH2] ({Acetyl(2-naphthyloxy)}-GGRIDRI-NH2) . Reported Ki(app)?
Found: 6.0

Lookup: Entry under review: CC[C@H](C)[C@H](NC(=O)[C@H](CCCNC(=N)N)NC(=O)[C@H](CC(=O)O)NC(=O)[C@H](Cc1ccccc1)NC(=O)[C@H](CCCNC(=N)N)NC(=O)CNC(=O)CNC(=O)Cc1ccc2ccccc2c1)C(N)=O [AP521, (2-NA)--G--G--R--F--D--R--I--NH2] ({Acetyl(2-naphthyl)}-GGRFDRI-NH2) . Reported Ki(app)?
Found: 400
